tested on: A498; assay: NCI-60 anticancer screen (SRB; single dose and five doses); conditions: Homo sapiens, A498, 48 h, read-out: Growth Percentage, A498; dose of 10 μM
Reported activity at 10 µM values for a set of molecules
Your answer should be a plain number; it is taken to be in %.

Recorded activity at 10 µM, per entry:
- Cc1[nH]c(=S)sc1C(=O)/C=C/c1ccc(N(C)C)cc1: 130
- COc1ccc(/C=C/C(=O)c2sc(=S)[nH]c2C)cc1: 120
- COc1ccc(/C=C/C(=O)c2sc(=S)[nH]c2C)cc1OC: 126

Query molecule follows.
Exercise: Record request: activity at 10 µM value, item `Cc1[nH]c(=S)sc1C(=O)/C=C/c1ccc([N+](=O)[O-])cc1`
Solution: 105

----------
test system: SK-MEL-2; assay: NCI-60 anticancer screen (SRB; single dose and five doses); conditions: Homo sapiens, SK-MEL-2
Reported IC50 values for a set of molecules
Your answer should be a plain number; it is taken to be in µM.

Recorded IC50, per entry:
* Cc1[nH]c(=S)sc1C(=O)/C=C/c1cccc(Cl)c1 | 29.5
* COc1cc(/C=C/C(=O)c2sc(=S)[nH]c2C)cc(OC)c1OC | 11
* Cc1[nH]c(=S)sc1C(=O)/C=C/c1ccc(Cl)cc1 | 27.5

Query molecule follows.
Exercise: Record request: IC50 value, item `Cc1[nH]c(=S)sc1C(=O)/C=C/c1cccc([N+](=O)[O-])c1`
Solution: 26.9

----------
system: BT-549
property: GI50 (nM)
Your answer should be a plain number; it is taken to be in nM.

Recorded GI50, per entry:
* Cc1[nH]c(=S)sc1C(=O)/C=C/c1cccc(Cl)c1 | 2240
* Cc1[nH]c(=S)sc1C(=O)/C=C/c1ccc(F)cc1 | 2340
* Cc1[nH]c(=S)sc1C(=O)/C=C/c1cccc([N+](=O)[O-])c1 | 3800
* COc1ccc(/C=C\c2cc(OC)c(OC)c(OC)c2)cc1O [CA-4, Combretastatin-A4, reference compound] | 10

Query molecule follows.
Exercise: Missing value: GI50, BT-549, entry `Cc1[nH]c(=S)sc1C(=O)/C=C/c1ccc(Cl)cc1` . Fill in?
Solution: 5750

----------
tested on: RXF 393; assay: NCI-60 anticancer screen (SRB; single dose and five doses); conditions: Homo sapiens, RXF 393, 48 h, read-out: Growth Percentage
With a cut-off of 50%, any activity at 10 µM strictly below it is called true; any activity at 10 µM meeting it or above is called false.

- Cc1[nH]c(=S)sc1C(=O)/C=C/c1ccccc1Cl [2d]: false
- Cc1ccc(/C=C/C(=O)c2sc(=S)[nH]c2C)cc1 [2j]: false
- COc1ccc(/C=C/C(=O)c2sc(=S)[nH]c2C)cc1OC [2o]: true
- COc1cc(/C=C/C(=O)c2sc(=S)[nH]c2C)cc(OC)c1OC [2p]: true
- COc1cccc(/C=C/C(=O)c2sc(=S)[nH]c2C)c1OC [2m]: false
- Cc1[nH]c(=S)sc1C(=O)/C=C/c1ccc([N+](=O)[O-])cc1 [2i]: true
- Cc1[nH]c(=S)sc1C(=O)/C=C/c1ccccc1 [2a]: true
- Cc1[nH]c(=S)sc1C(=O)/C=C/c1cccc(Cl)c1 [2e]: true

Exercise: Please indicate whether the reported activity at 10 µM of Cc1[nH]c(=S)sc1C(=O)/C=C/c1ccc(Br)cc1 [2g] is strictly below 50%.
Solution: true

Exercise: Try Cc1[nH]c(=S)sc1C(=O)/C=C/c1ccc(N(C)C)cc1 [2k] next.
Solution: false

----------
Reported CC50 values for a set of molecules
tested on: OVCAR-5; experiment: NCI-60 anticancer screen (SRB; single dose and five doses); settings: Homo sapiens, OVCAR-5, read-out: LC50
Your answer should be a plain number; it is taken to be in µM.

• Cc1[nH]c(=S)sc1C(=O)/C=C/c1cccc([N+](=O)[O-])c1 = 38.9
• Cc1[nH]c(=S)sc1C(=O)/C=C/c1ccc(F)cc1 = 57.7
• Cc1[nH]c(=S)sc1C(=O)/C=C/c1ccc([N+](=O)[O-])cc1 = 58.2
• Cc1[nH]c(=S)sc1C(=O)/C=C/c1ccc(Cl)cc1 = 60.3
• Cc1[nH]c(=S)sc1C(=O)/C=C/c1ccc(Br)cc1 = 57.3

Exercise: Record request: CC50 value, item `Cc1[nH]c(=S)sc1C(=O)/C=C/c1cccc(Cl)c1`
Solution: 57.5

Exercise: Try `COc1cc(/C=C/C(=O)c2sc(=S)[nH]c2C)cc(OC)c1OC` next.
Solution: 43.6

----------
system: UACC-257; experiment: NCI-60 anticancer screen (SRB; single dose and five doses); details: Homo sapiens, UACC-257
property: GI50
Give the value; after it, write the unit.

Recorded GI50, per entry:
• Cc1[nH]c(=S)sc1C(=O)/C=C/c1ccc(Cl)cc1 = 13.8 µM
• Cc1[nH]c(=S)sc1C(=O)/C=C/c1cccc(Cl)c1 = 3.63 µM
• Cc1[nH]c(=S)sc1C(=O)/C=C/c1cccc([N+](=O)[O-])c1 = 3.39 µM
• Cc1[nH]c(=S)sc1C(=O)/C=C/c1ccc(Br)cc1 = 11.3 µM
• Cc1[nH]c(=S)sc1C(=O)/C=C/c1ccc([N+](=O)[O-])cc1 = 15.1 µM

Exercise: Missing value: GI50, UACC-257, entry `COc1cc(/C=C/C(=O)c2sc(=S)[nH]c2C)cc(OC)c1OC` . Fill in?
Solution: 5.13 µM

Exercise: Try `Cc1[nH]c(=S)sc1C(=O)/C=C/c1ccc(F)cc1` next.
Solution: 12.6 µM

----------
test system: 786-0; experiment: NCI-60 anticancer screen (SRB; single dose and five doses); conditions: Homo sapiens, 786-0, 48 h, read-out: Growth Percentage
Binning scheme for activity at 10 µM: class 1 = under 20%, class 2 = from 20% up to 80%, class 3 = 80% and over

Worked set:
* Cc1[nH]c(=S)sc1C(=O)/C=C/c1ccc([N+](=O)[O-])cc1 | class 2
* Cc1[nH]c(=S)sc1C(=O)/C=C/c1cccc(F)c1 | class 2
* Cc1[nH]c(=S)sc1C(=O)/C=C/c1cccc(Cl)c1 | class 1
* COc1ccc(/C=C/C(=O)c2sc(=S)[nH]c2C)c(OC)c1 | class 3
* Cc1[nH]c(=S)sc1C(=O)/C=C/c1cccc([N+](=O)[O-])c1 | class 1
* COc1cc(/C=C/C(=O)c2sc(=S)[nH]c2C)cc(OC)c1OC | class 2

Exercise: Hi, small favor: classify `Cc1[nH]c(=S)sc1C(=O)/C=C/c1ccc(F)cc1` by its activity at 10 µM when you get a moment.
Solution: class 2

Exercise: Try `Cc1[nH]c(=S)sc1C(=O)/C=C/c1ccccc1Cl` next.
Solution: class 3

Exercise: Try `Cc1[nH]c(=S)sc1C(=O)/C=C/c1ccc(Cl)cc1` next.
Solution: class 1

Exercise: Try `Cc1[nH]c(=S)sc1C(=O)/C=C/c1ccc(N(C)C)cc1` next.
Solution: class 3

----------
Reported GI50 values for a set of compounds
tested on: HS 578T
Your answer should be a plain number; it is taken to be in µM.

Recorded GI50, per entry:
* COc1ccc(/C=C\c2cc(OC)c(OC)c(OC)c2)cc1O [CA-4, Combretastatin-A4, reference compound] | 0.15
* COc1cc(/C=C/C(=O)c2sc(=S)[nH]c2C)cc(OC)c1OC | 2.88
* Cc1[nH]c(=S)sc1C(=O)/C=C/c1ccc(Br)cc1 | 10.4

Exercise: Record request: GI50 value, item `Cc1[nH]c(=S)sc1C(=O)/C=C/c1cccc(Cl)c1`
Solution: 3.09

Exercise: Try `Cc1[nH]c(=S)sc1C(=O)/C=C/c1ccc([N+](=O)[O-])cc1` next.
Solution: 13

Exercise: Try `Cc1[nH]c(=S)sc1C(=O)/C=C/c1ccc(Cl)cc1` next.
Solution: 21.4

Exercise: Try `Cc1[nH]c(=S)sc1C(=O)/C=C/c1ccc(F)cc1` next.
Solution: 13.2

Exercise: Try `Cc1[nH]c(=S)sc1C(=O)/C=C/c1cccc([N+](=O)[O-])c1` next.
Solution: 17.4

----------
system: DU-145; assay: NCI-60 anticancer screen (SRB; single dose and five doses); settings: Homo sapiens, DU-145, 48 h, read-out: Growth Percentage
property: activity at 10 µM
Give the value; after it, write the unit.

• COc1ccc(/C=C/C(=O)c2sc(=S)[nH]c2C)c(OC)c1 = 86.9%
• COc1ccc(/C=C/C(=O)c2sc(=S)[nH]c2C)cc1OC = 48.1%
• Cc1[nH]c(=S)sc1C(=O)/C=C/c1ccc(F)cc1 = 20.3%
• Cc1[nH]c(=S)sc1C(=O)/C=C/c1ccc(Cl)cc1 = 7.29%
• Cc1[nH]c(=S)sc1C(=O)/C=C/c1ccc(N(C)C)cc1 = 92.8%

Exercise: Record request: activity at 10 µM value, item `Cc1[nH]c(=S)sc1C(=O)/C=C/c1ccccc1`
Solution: 27.9%

Exercise: Try `Cc1ccc(/C=C/C(=O)c2sc(=S)[nH]c2C)cc1` next.
Solution: 54.6%

Exercise: Try `Cc1[nH]c(=S)sc1C(=O)/C=C/c1cccc(F)c1` next.
Solution: 12.9%

Exercise: Try `Cc1[nH]c(=S)sc1C(=O)/C=C/c1cccc([N+](=O)[O-])c1` next.
Solution: 8.55%

Exercise: Try `COc1cccc(/C=C/C(=O)c2sc(=S)[nH]c2C)c1OC` next.
Solution: 42%

Exercise: Try `Cc1[nH]c(=S)sc1C(=O)/C=C/c1ccc([N+](=O)[O-])cc1` next.
Solution: 21.4%
